Value source: patent US20220112288A1

- tgt: T1, human CD4 on the surface of SKW3 cells or human PBMCs (human, UniProt P01730 26-458)
- T1 construct: whole, on cells; SKW3 CD4 knockout cells served as the negative cell line; also called hCD4; SKW3 WT
- test: FACS primary screen, non-clonal hybridoma supernatant, SKW3 vs SKW3 CD4 KO cells, anti-mouse Fc A647
quantity name: SKW3 WT vs KO anti-mFc-647 (ratio)
One number for each entry, in ratio.

75110_12H17A (antibody, V domains shown, Tested here as non-clonal hybridoma supernatant from AlivaMab Mouse Kappa mice (detected with anti-mouse Fc and anti-human kappa)) VH: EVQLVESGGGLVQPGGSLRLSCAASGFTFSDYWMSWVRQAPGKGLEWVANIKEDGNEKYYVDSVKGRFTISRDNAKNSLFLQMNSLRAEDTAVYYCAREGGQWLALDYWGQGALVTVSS VL: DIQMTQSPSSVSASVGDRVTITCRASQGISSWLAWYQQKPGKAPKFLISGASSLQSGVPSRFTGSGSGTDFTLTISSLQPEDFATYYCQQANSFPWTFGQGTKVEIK
4

In the following, a different binder is considered.
// SKW3 WT vs KO anti-mFc-647 lookup, binder = 75110_05B13A (antibody, V domains shown, Tested here as non-clonal hybridoma supernatant from AlivaMab Mouse Kappa mice (detected with anti-mouse Fc and anti-human kappa)) VH: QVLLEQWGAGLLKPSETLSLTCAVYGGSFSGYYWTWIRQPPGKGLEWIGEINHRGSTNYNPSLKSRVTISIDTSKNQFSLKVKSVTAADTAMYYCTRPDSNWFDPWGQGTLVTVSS VL: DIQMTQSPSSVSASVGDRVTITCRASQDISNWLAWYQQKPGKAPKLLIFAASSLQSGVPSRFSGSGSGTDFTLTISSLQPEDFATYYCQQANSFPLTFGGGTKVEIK , result: 3.1
